All figures here come from ChEMBL document CHEMBL1687913.

Test: Toxicity in human erythrocytes assessed as hemolysis at 6 uM after 40 mins
Type: cell-based, Erythrocyte
Settings: read-out: Activity
Where a SMILES comes first, the peptide text is derived from it. [ ]: non-standard residue; d: D form. Orn = NCCC[C@H](N)C(=O)O
# label = satisfied if hemolysis at 40 min, 6 µM < 20% else not satisfied

Query: Input CC[C@H](C)[C@H](NC(=O)[C@H](CCCNC(=N)N)NC(=O)[C@@H]1CCCN1C(=O)[C@H](CC(C)C)NC(=O)[C@H](Cc1ccccc1)NC(=O)[C@H](CCCCN)NC(=O)[C@H](CO)NC(=O)[C@H](Cc1ccccc1)NC(=O)[C@H](Cc1c[nH]c2ccccc12)NC(=O)[C@@H]1CCCN1C(=O)[C@@H](NC(=O)[C@@H](N)Cc1ccccc1)C(C)C)C(=O)N[C@@H](CC(C)C)C(N)=O ; condition: hemolysis at 40 min, 6 µM strictly below 20%. Does it hold?
Result: satisfied

Further cases:
Query: Input CC[C@H](C)[C@H](NC(=O)[C@H](CCCNC(=N)N)NC(=O)CNC(=O)[C@H](CC(C)C)NC(=O)[C@H](Cc1ccccc1)NC(=O)[C@H](CCCNC(=N)N)NC(=O)[C@H](CO)NC(=O)[C@H](Cc1ccccc1)NC(=O)[C@H](Cc1c[nH]c2ccccc12)NC(=O)[C@H](CCCNC(=N)N)NC(=O)[C@@H](NC(=O)[C@@H](N)Cc1ccccc1)C(C)C)C(=O)N[C@@H](CC(C)C)C(N)=O (H-FVRWFSRFLGRIL-NH2) ; condition: hemolysis at 40 min, 6 µM strictly below 20%. Does it hold?
Result: not satisfied

Query: Input CC[C@H](C)[C@H](NC(=O)[C@H](CCCNC(=N)N)NC(=O)CNC(=O)[C@H](CC(C)C)NC(=O)[C@H](Cc1ccccc1)NC(=O)[C@H](CCCNC(=N)N)NC(=O)[C@H](CO)NC(=O)[C@H](Cc1ccccc1)NC(=O)[C@H](Cc1c[nH]c2ccccc12)NC(=O)[C@H](CCC(N)=O)NC(=O)[C@@H](NC(=O)[C@@H](N)Cc1ccccc1)C(C)C)C(=O)N[C@@H](CC(C)C)C(N)=O (H-FVQWFSRFLGRIL-NH2) ; condition: hemolysis at 40 min, 6 µM strictly below 20%. Does it hold?
Result: not satisfied

Query: Input CC[C@H](C)[C@H](NC(=O)[C@H](CCCN)NC(=O)CNC(=O)[C@H](CC(C)C)NC(=O)[C@H](Cc1ccccc1)NC(=O)[C@H](CCCCN)NC(=O)[C@H](CO)NC(=O)[C@H](Cc1ccccc1)NC(=O)[C@H](Cc1c[nH]c2ccccc12)NC(=O)[C@H](CCC(N)=O)NC(=O)[C@@H](NC(=O)[C@@H](N)Cc1ccccc1)C(C)C)C(=O)N[C@@H](CC(C)C)C(N)=O (H-FVQWFSKFLG[Orn]IL-NH2) ; condition: hemolysis at 40 min, 6 µM strictly below 20%. Does it hold?
Result: not satisfied

Query: Input CC(C)C[C@H](NC(=O)[C@H](Cc1c[nH]c2ccccc12)NC(=O)[C@H](CCCNC(=N)N)NC(=O)CNC(=O)[C@H](CC(C)C)NC(=O)[C@H](CC(C)C)NC(=O)[C@H](CCCCN)NC(=O)[C@H](CO)NC(=O)[C@H](CC(C)C)NC(=O)[C@H](Cc1c[nH]c2ccccc12)NC(=O)[C@H](CCC(N)=O)NC(=O)[C@H](CC(C)C)NC(=O)[C@@H](N)CC(C)C)C(N)=O (H-LLQWLSKLLGRWL-NH2) ; condition: hemolysis at 40 min, 6 µM strictly below 20%. Does it hold?
Result: not satisfied

Query: Input CC[C@H](C)[C@H](NC(=O)[C@H](CCCNC(=N)N)NC(=O)CNC(=O)[C@H](CC(C)C)NC(=O)[C@H](Cc1ccccc1)NC(=O)[C@H](CCCCN)NC(=O)[C@H](CO)NC(=O)[C@H](Cc1ccccc1)NC(=O)[C@H](Cc1c[nH]c2ccccc12)NC(=O)[C@H](CCCNC(=N)N)NC(=O)[C@@H](NC(=O)[C@@H](N)Cc1ccccc1)C(C)C)C(=O)N[C@@H](CC(C)C)C(N)=O (H-FVRWFSKFLGRIL-NH2) ; condition: hemolysis at 40 min, 6 µM strictly below 20%. Does it hold?
Result: not satisfied
